Tested on: Saccharomyces cerevisiae
Protocol: protein stability index of tFT-peptide fusion (C-terminal peptide) (PSI (0-1 scale)); higher = more stable (slower turnover)
Setup conditions: genetic background: wild type; temperature: 30 C
For each of the sequences below, state its protein stability index.
One number for each entry.

Worked cases, answers included:
Record sequence	Target of assay	Measured endpoint	Numeric readout
KYEPTQEIIEDI [ITR1 C-terminal 12 aa]	Saccharomyces cerevisiae	protein stability index	0.702
ERPIVASTSPIA [TPH3 C-terminal 12 aa]	Saccharomyces cerevisiae	protein stability index	0.681
NQRKANDNKRRR [RRP17 C-terminal 12 aa]	Saccharomyces cerevisiae	protein stability index	0.77
RSPKKKKNYHKR [NUR1 C-terminal 12 aa]	Saccharomyces cerevisiae	protein stability index	0.673
KYNNYFKIPPKY [BI3 C-terminal 12 aa]	Saccharomyces cerevisiae	protein stability index	0.659

// next item, protein stability index requested
State recorded protein stability index with Saccharomyces cerevisiae, entry CWMLWLQDRPVC [YBL112C C-terminal 12 aa] , no comment.
0.625

---

System: Saccharomyces cerevisiae
Protocol: protein stability index of tFT-peptide fusion (C-terminal peptide) (PSI (0-1 scale)); higher = more stable (slower turnover)
Setup conditions: genetic background: das1 deletion; temperature: 30 C
Measured endpoint: protein stability index
Numbers only.

Record sequence	Target of assay	protein stability index
TSSQKIYHTSNK [IPK1 C-terminal 12 aa]	Saccharomyces cerevisiae	0.686
FKITTEHGTTQQ [CRT10 C-terminal 12 aa]	Saccharomyces cerevisiae	0.675
KNIKRDLRNVRI [TAX4 C-terminal 12 aa]	Saccharomyces cerevisiae	0.7

I need protein stability index for every entry listed below, if you could help.
1. TSQEINDRLEAL [PRE8 C-terminal 12 aa]
2. EAVKNDDIQIFG [BFR2 C-terminal 12 aa]
3. PMALFGIFAVAL [AFB1 C-terminal 12 aa]
4. IRLKRRDFMKNL [RRT12 C-terminal 12 aa]

1: 0.666; 2: 0.692; 3: 0.577; 4: 0.689

Go through the items and report each one's protein stability index.
1. VKWKVLCDLGWT [YIL047C-A C-terminal 12 aa]
2. EEKTKKEKSLLQ [NPP2 C-terminal 12 aa]
3. NYPELPRLTFST [RFU1 C-terminal 12 aa]
4. YAGHRFHDGNKL [ERR1 C-terminal 12 aa]
5. DTDGMQDQSSNI [IVY1 C-terminal 12 aa]

0.715
0.704
0.704
0.726
0.693

---

System: Saccharomyces cerevisiae
Protocol: protein stability index of tFT-peptide fusion (C-terminal peptide) (PSI (0-1 scale)); higher = more stable (slower turnover)
Setup conditions: genetic background: cdc34-1; temperature: 37 C
We use 0.3 as the dividing line for protein stability index: on or above the line is 1.0, below is 0.0.

Illustrative cases are given below, each with its answer.
Record sequence	Assigned category
VWFGGLAVCCGG	1.0
CHFLLPFLFTCA	0.0
VVSGLNYCLVLS	1.0

In plain terms: is recorded protein stability index at least 0.3 for `CVLGWCSLIAWC` ?
0.0

Has `GSLPERPLRYVC` a recorded protein stability index greater than or equal to 0.3?
1.0

Check if protein stability index >= 0.3 (inclusive). Item: `TNFVVRLRFVLF`
1.0

Identify whether the reported protein stability index of the following sequence is 0.3 or greater: `DGGHLVGHDLFY`
1.0

Could you tell me if the measured protein stability index of `LRGIVSVWILRA` reaches 0.3 or more?
1.0

Does the reported protein stability index for `LLLFSFAALANF` fall at or above the 0.3 mark?
1.0

// inclusive: protein stability index at least 0.3? input: `VVVVWVVVEIVR`
0.0

Source of measurements: the supplement of paper PMC10724198
